Molecular target: acetylcholine receptor (Homo sapiens)
Sequence (P02708 21-457): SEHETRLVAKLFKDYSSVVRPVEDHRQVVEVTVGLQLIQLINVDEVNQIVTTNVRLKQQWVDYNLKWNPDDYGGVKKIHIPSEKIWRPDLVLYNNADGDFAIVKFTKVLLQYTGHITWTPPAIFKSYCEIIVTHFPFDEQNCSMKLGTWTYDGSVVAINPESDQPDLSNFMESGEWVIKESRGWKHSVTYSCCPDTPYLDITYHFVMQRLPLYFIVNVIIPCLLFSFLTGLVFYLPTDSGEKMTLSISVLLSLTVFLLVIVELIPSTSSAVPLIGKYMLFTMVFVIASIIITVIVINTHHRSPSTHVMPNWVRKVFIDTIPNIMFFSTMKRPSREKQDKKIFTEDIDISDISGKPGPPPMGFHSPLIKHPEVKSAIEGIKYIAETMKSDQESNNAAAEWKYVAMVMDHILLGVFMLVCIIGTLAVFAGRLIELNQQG
Test: SPR binding affinity (RU) of optimized 5mer/6mer/7mer peptides, Examples 6-7
Settings: SPR, Resonance Units; peptides tested at 10 μM; 6mer-1 Bottom sequence (Table 11)
ASSAY ENDPOINT: Binding affinity (Ru)
Quick note: give the figure in Ru, leave out the unit.

[Q] // returns reported Binding affinity for input 6mer-1-624 (KKPPAK)
[A] 30

[Q] Further, for 6mer-1-737 (RRKNAR) ?
[A] 27

[Q] Further, for 6mer-1-797 (RRAWNK) ?
[A] 22

[Q] Further, for 6mer-1-686 (KKYEVR) ?
[A] 25

[Q] Further, for 6mer-1-718 (RKFKAR) ?
[A] 23

[Q] Further, for 6mer-1-747 (KKTMDR) ?
[A] 24

[Q] Further, for 6mer-1-758 (KKYHHR) ?
[A] 33

[Q] Further, for 6mer-1-716 (RRMPFK) ?
[A] 11

[Q] Further, for 6mer-1-722 (RRNKVR) ?
[A] 12

[Q] Further, for 6mer-1-614 (KKEEER) ?
[A] 12

[Q] Further, for 6mer-1-693 (RKIDMK) ?
[A] 22

[Q] Further, for 6mer-1-778 (RRDDFR) ?
[A] 28

[Q] Further, for 6mer-1-661 (RKPKWR) ?
[A] 14

[Q] Further, for 6mer-1-780 (KRKCWR) ?
[A] 24

[Q] Further, for 6mer-1-698 (KRFNHK) ?
[A] 27

[Q] Further, for 6mer-1-690 (KREAER) ?
[A] 21

[Q] Further, for 6mer-1-790 (KKPNPK) ?
[A] 12

[Q] Further, for 6mer-1-609 (RKNPVR) ?
[A] 24

[Q] Further, for 6mer-1-775 (KKYPWR) ?
[A] 12

[Q] Further, for 6mer-1-604 (KKFTKK) ?
[A] 24

[Q] Further, for 6mer-1-786 (KRIKEK) ?
[A] 26

[Q] Further, for 6mer-1-653 (KRMTHR) ?
[A] 15

[Q] Further, for 6mer-1-648 (KKFWEK) ?
[A] 17

[Q] Further, for 6mer-1-791 (RKPDDK) ?
[A] 13

[Q] Further, for 6mer-1-618 (RKCHVK) ?
[A] 19

[Q] Further, for 6mer-1-792 (KRKDKK) ?
[A] 30

[Q] Further, for 6mer-1-643 (KRYSMR) ?
[A] 31

[Q] Further, for 6mer-1-637 (RRFEFK) ?
[A] 33

[Q] Further, for 6mer-1-677 (KKCCFR) ?
[A] 22

[Q] Further, for 6mer-1-719 (KKDAEK) ?
[A] 27

[Q] Further, for 6mer-1-636 (RKYKDR) ?
[A] 27

[Q] Further, for 6mer-1-638 (KKESHR) ?
[A] 20

[Q] Further, for 6mer-1-694 (RKYTKR) ?
[A] 27

[Q] Further, for 6mer-1-674 (RKHPKK) ?
[A] 32

[Q] Further, for 6mer-1-738 (RKYHHR) ?
[A] 25
